target_under_test: Apoptosis regulator Bcl-2 (Homo sapiens, UniProt P10415)
Sequence (P10415 whole entry): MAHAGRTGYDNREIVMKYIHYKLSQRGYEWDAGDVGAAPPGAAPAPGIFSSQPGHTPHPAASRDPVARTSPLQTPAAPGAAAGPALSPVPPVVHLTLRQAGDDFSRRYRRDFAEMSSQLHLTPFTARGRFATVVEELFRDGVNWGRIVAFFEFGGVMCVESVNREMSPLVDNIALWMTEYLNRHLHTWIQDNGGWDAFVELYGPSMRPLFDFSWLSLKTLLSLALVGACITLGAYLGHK
test_details: Inhibition of Bak peptide binding to human recombinant Bcl2
measurement_kind: Ki (µM)
Write down the numeric answer in µM and omit the unit.

                           smiles_structure  measurement_kind  meas_value
0  CCOC(=O)[C@H](Cc1ccccc1)N1C(=O)/C(=C/c2ccc(OCOc3ccc(/C=C4\SC(=S)N([C@@H](Cc5ccccc5)C(=O)OCC)C4=O)cc3)cc2)SC1=S                Ki         226
1  CCOC(=O)[C@H](Cc1ccccc1)N1C(=O)/C(=C/c2ccc(Br)cc2)SC1=S                Ki         260

--- query ---
Input O=C(OCCOC(=O)[C@H](Cc1ccccc1)N1C(=O)/C(=C/c2ccc(Br)cc2)SC1=S)[C@H](Cc1ccccc1)N1C(=O)/C(=C/c2ccc(Br)cc2)SC1=S . Output Ki: 243
